# Lookup of reported Kd keyed by entry
target: T1, hCSF1R ECD.506 (human, UniProt P07333 20-506); assay: SPR Biacore T100, antibody captured on anti-human IgG, hCSF1R ECD.506 as analyte, 1:1 model
T1 construct: also called human CSF1R ECD
T1 sequence (P07333 20-506): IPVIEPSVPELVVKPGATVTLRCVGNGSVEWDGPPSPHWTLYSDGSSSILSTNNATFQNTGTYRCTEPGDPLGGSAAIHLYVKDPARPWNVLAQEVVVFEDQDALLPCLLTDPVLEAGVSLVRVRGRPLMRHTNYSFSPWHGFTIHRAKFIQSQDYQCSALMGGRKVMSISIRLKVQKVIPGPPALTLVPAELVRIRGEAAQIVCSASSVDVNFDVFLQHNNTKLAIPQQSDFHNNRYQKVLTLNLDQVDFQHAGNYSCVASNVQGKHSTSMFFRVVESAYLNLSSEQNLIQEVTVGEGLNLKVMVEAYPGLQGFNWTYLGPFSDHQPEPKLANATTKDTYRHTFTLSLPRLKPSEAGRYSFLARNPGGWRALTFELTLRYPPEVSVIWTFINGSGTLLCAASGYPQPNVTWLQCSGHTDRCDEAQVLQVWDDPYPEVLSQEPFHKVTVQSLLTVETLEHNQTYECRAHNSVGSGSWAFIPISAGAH
Note: unit nM is implicit; provide only the numeric part.

h0311-L1H1 (antibody, human IgG4 S228P, kappa, V domains shown, also called Ab14; huAb 0311-L1H1) VH: QVQLVQSGAEVKKPGSSVKVSCKASGYIFTDYNMHWVRQAPGQGLEWMGEINPNNGVVVYNQKFKGRVTITVDKSTSTAYMELSSLRSEDTAVYYCTRALYHSNFGWYFDSWGQGTLVTVSS VL: DIVLTQSPATLSLSPGERATLSCKASQSVDYDGDSHMNWYQQKPGQAPRLLIYTASNLESGIPARFSGSGSGADFTLTISSLEPEDFAVYYCQQGNEDPWTFGQGTKVEIKR; 0.5

From here, focus on the item given below.
Give a short answer stating reported Kd for h0302-L2H2 (antibody, human IgG4 S228P, kappa, V domains shown, also called Ab12; huAb 0302-L2H2) VH: QVQLVQSGAEVKKPGSSVKVSCKASGYTFSDFNIHWVRQAPGQGLEWIGYINPYTDVTVYNEKFKGRATLTSDKSTSTAYMELSSLRSEDTAVYYCASYFDGTFDYALDYWGQGTLVTVSS VL: EIVVTQSPATLSLSPGERATLSCRASESVDNYGLSFMNWFQQKPGQAPRLLIYTASNLESGIPARFSGSGSRTDFTLTISSLEPEDFAVYYCQQSKELPWTFGQGTKVEIKR .
0.46
